Recorded shrunken log2 fold change by entry
# Test system: Escherichia coli TOP10
# PROTOCOL DETAILS: shrunken log2 fold change of peptide-encoding DNA abundance (4.5 h post-induction vs induction); higher = less antimicrobial activity (less host growth inhibition)
# MEASUREMENT CONTEXT: time post-induction: 4.5 h; library: site-saturation at positions 5, 18, 19, 20
Please respond with just the number, no unit label.

* RRIRHRPPRLPRPRPRPIQFPRP | -0.482
* RRIRARPPRLPRPRPRPPWHPRP | 0.342
* RRIRIRPPRLPRPRPRPTQMPRP | 0.565

// query Jot down shrunken log2 fold change (Escherichia coli TOP10) of `RRIRWRPPRLPRPRPRPPNDPRP` .
// result 0.0849

// query // fetch shrunken log2 fold change; item: `RRIRSRPPRLPRPRPRPLNPPRP` ; system: Escherichia coli TOP10
// result -0.0273

// query Report shrunken log2 fold change on Escherichia coli TOP10 for this entry: `RRIRQRPPRLPRPRPRPMLHPRP`
// result -0.0433

// query For Escherichia coli TOP10, give the measured shrunken log2 fold change of the entry `RRIRYRPPRLPRPRPRPNIWPRP`
// result -0.302

----------
# Test system: Escherichia coli TOP10
# PROTOCOL DETAILS: shrunken log2 fold change of peptide-encoding DNA abundance (4.5 h post-induction vs induction); higher = less antimicrobial activity (less host growth inhibition)
# MEASUREMENT CONTEXT: time post-induction: 4.5 h; library: site-saturation at positions 5, 18, 19, 20
Below, each of the sequences is paired with its reported shrunken log2 fold change value.
In your answer, state the number alone without any accompanying words.

Completed entries (count: 5):
• RRIRRRPPRLPRPRPRPQRKPRP = 0.347
• RRIRDRPPRLPRPRPRPCPAPRP = -0.156
• RRIRIRPPRLPRPRPRPSKEPRP = -0.202
• RRIRQRPPRLPRPRPRPNLMPRP = -0.196
• RRIRQRPPRLPRPRPRPNCNPRP = -0.882

// query Give shrunken log2 fold change for the following sequence: `RRIRDRPPRLPRPRPRPFKCPRP`
// result 0.0039

// query Identify the reported shrunken log2 fold change for the following entry. `RRIRCRPPRLPRPRPRPVGDPRP`
// result 0.551

----------
# Test system: Escherichia coli TOP10;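 note: peptides expressed intracellularly from a pBAD plasmid library in pooled LB shake-flask culture, induced with 0.3% L-arabinose, DNA abundance read by NGS, three biological replicates, DESeq2 with apeglm shrinkage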
# PROTOCOL DETAILS: shrunken log2 fold change of peptide-encoding DNA abundance (4.5 h post-induction vs induction); higher = less antimicrobial activity (less host growth inhibition)
# MEASUREMENT CONTEXT: time post-induction: 4.5 h; library: site-saturation at positions 5, 18, 19, 20
Mark not met for shrunken log2 fold change values under 0.04, and met for everything at or above.

Solved cases below.
• RRIRCRPPRLPRPRPRPLMSPRP = not met
• RRIRNRPPRLPRPRPRPMELPRP = not met

// query Identify whether the reported shrunken log2 fold change of the following sequence is 0.04 or greater: `RRIRWRPPRLPRPRPRPSVAPRP`
// result met

// query Kindly determine if shrunken log2 fold change recorded for `RRIRSRPPRLPRPRPRPRIYPRP` is above or exactly 0.04.
// result not met

// query Threshold query (shrunken log2 fold change >= 0.04) on `RRIRDRPPRLPRPRPRPMQHPRP`
// result not met

// query For this sequence, is measured shrunken log2 fold change 0.04 or higher? `RRIRIRPPRLPRPRPRPGRRPRP`
// result met

// query Reported shrunken log2 fold change reaches at least 0.04 for `RRIRHRPPRLPRPRPRPNNHPRP` ?
// result not met
